- TGT: T1, Claudin 6 (human) (human, UniProt P56747 1-220)
- T1 construct: Expressed on transfected HEK-293T cells or naturally on PA-1 cells for flow cytometry; For the Octet KD values it was the intact protein embedded in virus-like particles (lipoparticles); also called hsCLDN6; CLDN6
- T1 chain: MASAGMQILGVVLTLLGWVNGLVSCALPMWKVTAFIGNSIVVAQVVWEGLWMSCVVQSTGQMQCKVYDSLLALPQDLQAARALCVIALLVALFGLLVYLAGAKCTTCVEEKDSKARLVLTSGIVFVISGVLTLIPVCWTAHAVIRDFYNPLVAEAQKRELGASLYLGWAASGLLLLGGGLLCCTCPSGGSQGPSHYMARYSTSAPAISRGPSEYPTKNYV
- ASSAY_SUMMARY: flow cytometry, 66 nM MAb on HEK-293T cells expressing claudin6
Reported Binding (geometric mean fluorescence) values for a set of binders

[Q] Query (binder): IM271 w/ F10h cLC (antibody, V domains shown, IM271 heavy chain paired with the common light chain F10h) VH: EVQLLESGGGLVQPGGSLRLSCAASGFTFSSYAMSWVRQAPGKGLEWVAGISSSGRYTGYADSVKGRFTISRDNSKNTLYLQMNSLRAEDTAVYYCAKSVGNGNSWSGYIATSIDAWGQGTLVTVSS VL: SYELTQPPSVSVSPGQTARITCSGGYNGHYGWYQQKPGQAPVLVIYSNNQRPSGIPERFSGSSSGTTVTLTISGVQAEDEADYYCGGYDSSAGIFGGGTKLTVL ; field requested: Binding (geometric mean fluorescence)
[A] 160000 geometric mean fluorescence

[Q] // query: IM180 w/ F10h cLC (antibody, V domains shown, IM180 heavy chain paired with the common light chain F10h) VH: EVQLLESGGGLVQPGGSLRLSCAASGFDFSSYAMNWVRQAPGKGLEWVAGIGSTGSSTGYADSVKGRFTISRDNSKNTLYLQMNSLRAEDTAVYYCAKSVGNGNSWSGYIATSIDAWGQGTLVTVSS VL: SYELTQPPSVSVSPGQTARITCSGGYNGHYGWYQQKPGQAPVLVIYSNNQRPSGIPERFSGSSSGTTVTLTISGVQAEDEADYYCGGYDSSAGIFGGGTKLTVL
[A] 10100 geometric mean fluorescence

[Q] // query: IM180 (antibody, V domains shown, Produced with its natural light chain) VH: EVQLLESGGGLVQPGGSLRLSCAASGFDFSSYAMNWVRQAPGKGLEWVAGIGSTGSSTGYADSVKGRFTISRDNSKNTLYLQMNSLRAEDTAVYYCAKSVGNGNSWSGYIATSIDAWGQGTLVTVSS VL: SYELTQPPSVSVSPGQTARITCSGGSSGYGWYQQKPGQAPVLVIYSNDKRPSGIPERFSGSSSGTTVTLTISGVQAEDEADYYCGSTDNSYVGIFGGGTKLTVL
[A] 46900 geometric mean fluorescence

More entries:
[Q] Query (binder): IM271 (antibody, V domains shown) VH: EVQLLESGGGLVQPGGSLRLSCAASGFTFSSYAMSWVRQAPGKGLEWVAGISSSGRYTGYADSVKGRFTISRDNSKNTLYLQMNSLRAEDTAVYYCAKSVGNGNSWSGYIATSIDAWGQGTLVTVSS VL: SYELTQPPSVSVSPGQTARITCSGGSGSYGWYQQKPGQAPVLVIYGTNKRPSGIPERFSGSSSGTTVTLTISGVQAEDEADYYCGSADSSTNAGIFGGGTKLTVL ; field requested: Binding (geometric mean fluorescence)
[A] 63000 geometric mean fluorescence
